tested on: Escherichia coli TOP10; assay: shrunken log2 fold change of peptide-encoding DNA abundance (4.5 h post-induction vs induction); higher = less antimicrobial activity (less host growth inhibition); conditions: time post-induction: 4.5 h; library: site-saturation at positions 5, 18, 19, 20
Definition: the class of an entry is the range in lower: < -0.2; middle: ≥ -0.2 and < 0.1; upper: ≥ 0.1 that contains its shrunken log2 fold change.

# example entries with known answers
| seqText | cat |
| --- | --- |
| RRIRFRPPRLPRPRPRPIPLPRP | lower |
| RRIRSRPPRLPRPRPRPMYFPRP | lower |
| RRIRDRPPRLPRPRPRPHHTPRP | lower |
| RRIRGRPPRLPRPRPRPISQPRP | upper |
| RRIRCRPPRLPRPRPRPQFKPRP | lower |
| RRIRPRPPRLPRPRPRPWNAPRP | middle |
| RRIRNRPPRLPRPRPRPKEFPRP | middle |
| RRIRTRPPRLPRPRPRPYSRPRP | middle |
| RRIRQRPPRLPRPRPRPCMCPRP | middle |
| RRIRIRPPRLPRPRPRPCNLPRP | lower |

Problem: Into which bin does this sequence go? RRIRRRPPRLPRPRPRPPCVPRP
Result: upper

Problem: Place this sequence in its band: RRIRYRPPRLPRPRPRPSKAPRP
Result: lower

Problem: Into which bin does this sequence go? RRIRKRPPRLPRPRPRPNYFPRP
Result: lower

Problem: Please let me know in which category the item RRIRHRPPRLPRPRPRPRSTPRP belongs.
Result: middle

Problem: Any idea which band RRIRARPPRLPRPRPRPDCSPRP is in?
Result: upper

Problem: Entry RRIRIRPPRLPRPRPRPMECPRP belongs to which category?
Result: middle

Problem: Class (by measured shrunken log2 fold change) for RRIRHRPPRLPRPRPRPPWMPRP
Result: upper

Problem: Lab note: which band did RRIRDRPPRLPRPRPRPAWDPRP land in?
Result: upper

Problem: Class (by measured shrunken log2 fold change) for RRIRTRPPRLPRPRPRPRSGPRP
Result: upper

Problem: Using the reported shrunken log2 fold change, which band applies to RRIRPRPPRLPRPRPRPYYDPRP ?
Result: lower

Problem: Sort into band: RRIRMRPPRLPRPRPRPRAFPRP
Result: upper

Problem: Categorize the following entry: RRIRWRPPRLPRPRPRPNFFPRP
Result: middle

Problem: # bin label for RRIRSRPPRLPRPRPRPRVFPRP
Result: upper

Problem: Assign a bin to RRIRLRPPRLPRPRPRPFLDPRP
Result: lower

* * *

tested on: Escherichia coli TOP10; experiment: shrunken log2 fold change of peptide-encoding DNA abundance (4.5 h post-induction vs induction); higher = less antimicrobial activity (less host growth inhibition); settings: time post-induction: 4.5 h; library: site-saturation at positions 5, 18, 19, 20
measure: shrunken log2 fold change
Kindly provide the number alone.

Some sequences with recorded shrunken log2 fold change:
| seqText | targetSystem | shrunken log2 fold change |
| --- | --- | --- |
| RRIRRRPPRLPRPRPRPGYVPRP | Escherichia coli TOP10 | 0.183 |
| RRIRRRPPRLPRPRPRPDDLPRP | Escherichia coli TOP10 | -0.128 |
| RRIRRRPPRLPRPRPRPDKPPRP | Escherichia coli TOP10 | 0.583 |
| RRIRHRPPRLPRPRPRPFDFPRP | Escherichia coli TOP10 | -1.21 |
| RRIRIRPPRLPRPRPRPFGSPRP | Escherichia coli TOP10 | 0.00777 |

Problem: For RRIRWRPPRLPRPRPRPWHAPRP , what is its reported shrunken log2 fold change?
Result: 0.0362

Problem: Given RRIRNRPPRLPRPRPRPDMHPRP , state its recorded shrunken log2 fold change.
Result: -0.0698

* * *

tested on: Escherichia coli TOP10; assay: shrunken log2 fold change of peptide-encoding DNA abundance (4.5 h post-induction vs induction); higher = less antimicrobial activity (less host growth inhibition); conditions: time post-induction: 4.5 h; library: site-saturation at positions 5, 18, 19, 20
Classify by measured shrunken log2 fold change: t if it is equal to or exceeds -0.08, f if it is smaller.

Consider the worked cases shown below.
| seqText | targetSystem | cat |
| --- | --- | --- |
| RRIRARPPRLPRPRPRPFRLPRP | Escherichia coli TOP10 | t |
| RRIRTRPPRLPRPRPRPQSQPRP | Escherichia coli TOP10 | f |
| RRIRVRPPRLPRPRPRPNRFPRP | Escherichia coli TOP10 | t |
| RRIRTRPPRLPRPRPRPMLRPRP | Escherichia coli TOP10 | t |

Now consider a different sequence.
Problem: Please check the record RRIRARPPRLPRPRPRPCNFPRP and state if its shrunken log2 fold change is at or above -0.08.
Result: f

* * *

Let's look at some sequences and their measured shrunken log2 fold change.
test system: Escherichia coli TOP10; test: shrunken log2 fold change of peptide-encoding DNA abundance (4.5 h post-induction vs induction); higher = less antimicrobial activity (less host growth inhibition); details: time post-induction: 4.5 h; library: site-saturation at positions 5, 18, 19, 20
Provide a numeric answer; units are not to be included.

Record excerpt, results attached:
| seqText | shrunken log2 fold change |
| --- | --- |
| RRIRPRPPRLPRPRPRPANCPRP | 0.0263 |
| RRIRNRPPRLPRPRPRPMKAPRP | -0.158 |
| RRIRRRPPRLPRPRPRPLKTPRP | 0.157 |

Next:
Problem: Recorded shrunken log2 fold change of RRIRFRPPRLPRPRPRPEHQPRP , please.
Result: -0.1

* * *

system: Escherichia coli TOP10; assay: shrunken log2 fold change of peptide-encoding DNA abundance (4.5 h post-induction vs induction); higher = less antimicrobial activity (less host growth inhibition); conditions: time post-induction: 4.5 h; library: site-saturation at positions 5, 18, 19, 20
Lab note: anything with shrunken log2 fold change at or over 0.06 counts as met; the rest go in not met.

See these solved cases before continuing.
| seqText | cat |
| --- | --- |
| RRIRNRPPRLPRPRPRPRCKPRP | not met |
| RRIRRRPPRLPRPRPRPSTTPRP | not met |
| RRIRARPPRLPRPRPRPYSCPRP | not met |

Problem: Is reported shrunken log2 fold change greater than or equal to 0.06 here: RRIRARPPRLPRPRPRPESRPRP
Result: met

Problem: Hi team, for RRIRFRPPRLPRPRPRPPQNPRP , is the recorded shrunken log2 fold change at or above 0.06?
Result: met

Problem: Please indicate if the recorded shrunken log2 fold change for RRIRLRPPRLPRPRPRPFVQPRP meets or exceeds 0.06.
Result: not met

Problem: # check: shrunken log2 fold change of RRIRRRPPRLPRPRPRPMAPPRP is greater than or equal to 0.06
Result: met

* * *

test system: Escherichia coli TOP10; test: shrunken log2 fold change of peptide-encoding DNA abundance (4.5 h post-induction vs induction); higher = less antimicrobial activity (less host growth inhibition); conditions: time post-induction: 4.5 h; library: site-saturation at positions 5, 18, 19, 20
Label NO if shrunken log2 fold change falls below 0.01; label YES in every other case.

Below, 4 sequences whose answers are already recorded.
| seqText | cat |
| --- | --- |
| RRIRNRPPRLPRPRPRPPVSPRP | NO |
| RRIRPRPPRLPRPRPRPPPQPRP | YES |
| RRIRLRPPRLPRPRPRPDGSPRP | YES |
| RRIRFRPPRLPRPRPRPYWYPRP | NO |

Lab note: next sequence to report on.
Problem: API: above_or_equal(metric=shrunken log2 fold change, cutoff=0.01) for item RRIRRRPPRLPRPRPRPMIVPRP
Result: NO

* * *

system: Escherichia coli TOP10; assay: shrunken log2 fold change of peptide-encoding DNA abundance (4.5 h post-induction vs induction); higher = less antimicrobial activity (less host growth inhibition); details: time post-induction: 4.5 h; library: site-saturation at positions 5, 18, 19, 20
Cut-off -0.007 on shrunken log2 fold change, inclusive. At or above means Y; below means N.

Example cases with answers are listed next.
| seqText | cat |
| --- | --- |
| RRIRHRPPRLPRPRPRPRFAPRP | Y |
| RRIRTRPPRLPRPRPRPLNSPRP | N |
| RRIRRRPPRLPRPRPRPGCDPRP | Y |
| RRIRFRPPRLPRPRPRPEYFPRP | Y |
| RRIRCRPPRLPRPRPRPFQIPRP | Y |

Problem: Could you please find out whether RRIRARPPRLPRPRPRPQMQPRP has shrunken log2 fold change that meets -0.007 or exceeds it?
Result: Y

* * *

system: Escherichia coli TOP10; assay: shrunken log2 fold change of peptide-encoding DNA abundance (4.5 h post-induction vs induction); higher = less antimicrobial activity (less host growth inhibition); conditions: time post-induction: 4.5 h; library: site-saturation at positions 5, 18, 19, 20;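 note: peptides expressed intracellularly from a pBAD plasmid library in pooled LB shake-flask culture, induced with 0.3% L-arabinose, DNA abundance read by NGS, three biological replicates, DESeq2 with apeglm shrinkage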
Think of -0.04 as a floor: if shrunken log2 fold change stands on it or above, it is Yes; beneath it, No.

Solved entries (count: 4):
| seqText | cat |
| --- | --- |
| RRIRHRPPRLPRPRPRPAPDPRP | Yes |
| RRIRTRPPRLPRPRPRPMYDPRP | No |
| RRIRVRPPRLPRPRPRPIPKPRP | No |
| RRIRARPPRLPRPRPRPTHLPRP | Yes |

Problem: Does the sequence RRIRCRPPRLPRPRPRPQTGPRP have recorded shrunken log2 fold change that is -0.04 or more?
Result: No

Problem: Exam item: decide whether the reported shrunken log2 fold change for RRIRFRPPRLPRPRPRPGFYPRP is at least -0.04.
Result: No
